# Kd per entry
target: Nef protein (Human immunodeficiency virus type 1 group M subtype B, UniProt P03404); assay: SPR binding of Mortalin peptides to immobilized Nef; parameters: species or system HIV-1
Where no end group is shown, it is not given here.
Please give a number only; it is taken to be in µM.

// query Need Kd of GGLSKDDIENMVKNAEKYAE [#56] , thanks.
// result 76.9

// query Subsequent entry: LKEEISKMRELLARKDSETG [#62]
// result 1.9

----------
test system: Jurkat T cells; assay: exNef secretion, Mortalin scanning peptides (Figure 5A), Jurkat T cells; assay type: cell-based; details: 50 ng / 200 μL peptide, 250 ng Nef-GFP plasmid, 48 h, GFP fluorescence in media; SMRmut = 100; mean of three independent experiments
# Jurkat GFP (exNef secretion) per entry
Please give a number only; it is taken to be in %.

Below, 5 substances whose answers are already recorded.
SUBSTANCE	Jurkat GFP (exNef secretion), %
EDRRKKERVEAVNMAEGIIH [#58, Mortalin scanning peptide 58]	91.89
DTETKMEEFKDQLPADECNK [#60, Mortalin scanning peptide 60]	98.25
GSGSSGTGEQKEDQKEEKQ [#67, Mortalin scanning peptide 67]	99.56
LLARKDSETGENIRQAASSL [#63, Mortalin scanning peptide 63]	98.02
ENIRQAASSLQOASLKLFEM [#64, Mortalin scanning peptide 64]	95.37

// query Hello, I am looking for reported Jurkat GFP (exNef secretion) with Jurkat T cells for AVNMAEGIIHDTETKMEEFK [#59, Mortalin scanning peptide 59] . Could you help?
// result 95.49

// query Subsequent entry: MVKNAEKYAEEDRRKKERVE [#57, Mortalin scanning peptide 57]
// result 96.69

// query Subsequent entry: DQLPADECNKLKEEISKMRE [#61, Mortalin scanning peptide 61]
// result 0.65

// query Subsequent entry: QOASLKLFEMAYKKMASERE [#65, Mortalin scanning peptide 65]
// result 96.34

// query Subsequent entry: ^66Ala-Gly-Phe-Pro-Val^70 [SMRmut, 5-mer negative control, Val66 changed to Ala]
// result 100

// query Subsequent entry: AYKKMASEREGSGSSGTGEQ [#66, Mortalin scanning peptide 66]
// result 92.28
